Quick reference for pIC50 among some compounds
# test target: UniProtKB O95436
# Sequence (O95436 whole entry): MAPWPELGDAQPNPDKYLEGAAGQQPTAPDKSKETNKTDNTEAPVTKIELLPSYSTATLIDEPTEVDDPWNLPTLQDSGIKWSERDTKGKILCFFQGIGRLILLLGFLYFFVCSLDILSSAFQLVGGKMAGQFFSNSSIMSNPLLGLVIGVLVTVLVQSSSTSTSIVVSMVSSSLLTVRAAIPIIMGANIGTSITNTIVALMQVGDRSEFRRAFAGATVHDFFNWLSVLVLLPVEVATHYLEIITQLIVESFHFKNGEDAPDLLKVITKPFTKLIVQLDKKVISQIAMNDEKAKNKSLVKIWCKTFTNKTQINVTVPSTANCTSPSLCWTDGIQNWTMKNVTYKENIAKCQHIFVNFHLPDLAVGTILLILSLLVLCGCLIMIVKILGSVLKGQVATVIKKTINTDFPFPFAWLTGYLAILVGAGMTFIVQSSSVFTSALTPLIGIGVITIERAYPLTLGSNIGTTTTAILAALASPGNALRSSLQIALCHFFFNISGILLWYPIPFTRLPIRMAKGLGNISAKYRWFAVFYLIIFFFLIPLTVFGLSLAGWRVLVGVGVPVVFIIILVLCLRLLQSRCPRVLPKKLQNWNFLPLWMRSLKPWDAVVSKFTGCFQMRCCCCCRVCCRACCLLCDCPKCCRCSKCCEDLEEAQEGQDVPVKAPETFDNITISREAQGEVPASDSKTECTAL
Just so you know, pIC50 here is -log10 of the concentration in molar units; reply with that number alone.

# smiles string, test target, pIC50
data = [
    ("CC1(C)CCc2c(sc(NC(=O)c3cccc(OCCOCCOCCOCCOCCOCCO)c3)c2C(=O)c2cnn(-c3ccc(Cl)c(C(F)(F)F)c3)c2)C1", "UniProtKB O95436", 6.77),
]

Could you now consider this next compound?
I'd like to know its pIC50. The compound in question is CCC(CC)N(CCN(C)C(=O)CCC(=O)N(C)C[C@H](O)[C@@H](O)[C@@H](O)[C@H](O)CO)Cc1cccc(C(=O)Nc2sc3c(c2C(=O)c2cnn(-c4ccc(Cl)c(C(F)(F)F)c4)c2)CCC(C)(C)C3)c1 7.06

* * *

Quick reference for solubility among some compounds
# assay comment: Solubility of the compound in FeSSIF at pH 5.1
# Type: physicochemical

# smiles string, solubility
data = [
    ("CCC(CC)N(CCN(C)C(=O)CCC(=O)NCCOCCOCCOCCO)Cc1cccc(C(=O)Nc2sc3c(c2C(=O)c2cnn(-c4ccc(Cl)c(C(F)(F)F)c4)c2)CCC(C)(C)C3)c1.Cl", "> 384 µg/mL"),
]

Could you now consider this next compound?
I'd like to know its solubility. The compound in question is CCC(CC)N(CCN(C)C(=O)CCC(=O)NC(C)(C)C(=O)NCCN(C)C)Cc1cccc(C(=O)Nc2sc3c(c2C(=O)c2cnn(-c4ccc(Cl)c(C(F)(F)F)c4)c2)CCC(C)(C)C3)c1.Cl > 434 µg/mL

* * *

# test target: Sodium-dependent phosphate transport protein 2B (Rattus norvegicus, UniProt Q9JJ09)
# Sequence (Q9JJ09 whole entry): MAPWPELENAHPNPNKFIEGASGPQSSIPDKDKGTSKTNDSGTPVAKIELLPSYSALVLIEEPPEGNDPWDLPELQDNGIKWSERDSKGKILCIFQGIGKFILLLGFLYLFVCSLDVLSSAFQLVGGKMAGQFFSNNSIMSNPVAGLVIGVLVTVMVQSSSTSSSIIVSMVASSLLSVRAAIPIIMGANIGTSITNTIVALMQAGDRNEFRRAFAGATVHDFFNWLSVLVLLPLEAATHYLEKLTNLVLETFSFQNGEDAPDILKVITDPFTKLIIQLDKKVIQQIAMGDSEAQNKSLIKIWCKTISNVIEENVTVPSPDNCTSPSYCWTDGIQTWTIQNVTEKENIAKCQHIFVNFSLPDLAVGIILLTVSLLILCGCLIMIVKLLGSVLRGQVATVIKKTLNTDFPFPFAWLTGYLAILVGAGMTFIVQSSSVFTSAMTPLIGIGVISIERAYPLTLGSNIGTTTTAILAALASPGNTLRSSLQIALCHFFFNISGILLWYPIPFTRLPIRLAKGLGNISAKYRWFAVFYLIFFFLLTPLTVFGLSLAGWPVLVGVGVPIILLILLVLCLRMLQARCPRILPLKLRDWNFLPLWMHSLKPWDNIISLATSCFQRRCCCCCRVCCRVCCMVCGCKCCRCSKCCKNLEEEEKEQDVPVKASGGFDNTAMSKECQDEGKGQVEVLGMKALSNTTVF
parameter: pIC50
Just so you know, pIC50 here is -log10 of the concentration in molar units; reply with that number alone.

# smiles string, parameter, reported measurement
records = [
    ("CCC(CC)N(CCN(C)C(=O)CCC(=O)NCCOCCOCCOCCO)Cc1cccc(C(=O)Nc2sc3c(c2C(=O)c2cnn(-c4ccc(Cl)c(C(F)(F)F)c4)c2)CCC(C)(C)C3)c1", "pIC50", 8.68),
]

Could you now consider this next compound?
Give Sodium-dependent phosphate transport protein 2B (Rattus norvegicus, UniProt Q9JJ09) pIC50 for CCC(CC)N(CCN(C)C(=O)CCC(=O)NC(C)(C)C(=O)NCCN(C)C)Cc1cccc(C(=O)Nc2sc3c(c2C(=O)c2cnn(-c4ccc(Cl)c(C(F)(F)F)c4)c2)CCC(C)(C)C3)c1 8.12

* * *

Protein target, amino acids: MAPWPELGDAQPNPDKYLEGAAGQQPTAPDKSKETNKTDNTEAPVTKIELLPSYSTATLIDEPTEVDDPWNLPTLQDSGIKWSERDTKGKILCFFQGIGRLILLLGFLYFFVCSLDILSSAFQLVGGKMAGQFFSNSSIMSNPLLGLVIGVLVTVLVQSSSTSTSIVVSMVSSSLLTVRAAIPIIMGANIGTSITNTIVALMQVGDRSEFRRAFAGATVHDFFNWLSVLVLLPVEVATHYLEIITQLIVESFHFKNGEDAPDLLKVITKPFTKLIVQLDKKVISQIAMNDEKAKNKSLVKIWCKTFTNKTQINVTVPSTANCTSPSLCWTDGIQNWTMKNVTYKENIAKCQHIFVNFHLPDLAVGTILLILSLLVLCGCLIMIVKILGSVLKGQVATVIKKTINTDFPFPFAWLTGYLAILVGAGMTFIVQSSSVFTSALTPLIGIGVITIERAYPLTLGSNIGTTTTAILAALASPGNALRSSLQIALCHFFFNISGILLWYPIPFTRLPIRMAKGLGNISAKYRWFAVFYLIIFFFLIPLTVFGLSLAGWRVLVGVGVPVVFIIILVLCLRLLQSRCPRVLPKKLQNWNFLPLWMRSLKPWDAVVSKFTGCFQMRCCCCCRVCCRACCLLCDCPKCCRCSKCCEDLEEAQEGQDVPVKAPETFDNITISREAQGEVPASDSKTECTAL
parameter: pIC50
Just so you know, pIC50 here is -log10 of the concentration in molar units; reply with that number alone.

# smiles string, pIC50
records = [
    ("CCC(CC)N(CCN(C)C(=O)CCC(=O)NCCOCCOCCOCCO)Cc1cccc(C(=O)Nc2sc3c(c2C(=O)c2cnn(-c4ccc(Cl)c(C(F)(F)F)c4)c2)CCC(C)(C)C3)c1", 7.82),
]

Could you now consider this next compound?
I'd like to know its pIC50. The compound in question is CCC(CC)N(CCN(C)C(=O)CCC(=O)O)Cc1cccc(C(=O)Nc2sc3c(c2C(=O)c2cnn(-c4ccc(Cl)cc4)c2)CCOC3)c1 6.36

* * *

# assay comment: AUC (0 to t) in fasted Sprague-Dawley rat at 10 mg/kg, po
# Type: ADME, organism-based
# Design: dose 10 mg/kg, route po
# study conditions: Sprague-Dawley, in vivo
parameter: AUC(0-t) (ng·h/mL)
Give a bare numeral; the unit ng·h/mL is implied.

# smiles string, AUC(0-t) / ng·h/mL
records = [
    ("CCC(CC)N(CCN(C)C(=O)CCC(=O)NCCOCCOCCOCCO)Cc1cccc(C(=O)Nc2sc3c(c2C(=O)c2cnn(-c4ccc(Cl)c(C(F)(F)F)c4)c2)CCC(C)(C)C3)c1", 32.3),
]

Could you now consider this next molecule?
I'd like to know its AUC(0-t). The molecule in question is CCC(CC)N(CCN(C)C(=O)CCC(=O)O)Cc1cccc(C(=O)Nc2sc3c(c2C(=O)c2cnn(-c4ccc(Cl)c(C(F)(F)F)c4)c2)CCC(C)(C)C3)c1 2190

* * *

Quick reference for solubility among some molecules
# assay comment: Solubility of the compound in FaSSIF at pH 6.6
# Type: physicochemical
Give a bare numeral; the unit µg/mL is implied.

# smiles string, units symbol, reported measurement
rows = [
    ("CCC(CC)N(CCN(C)C(=O)CCC(=O)NC(C)(C)C(=O)NCCN(C)C)Cc1cccc(C(=O)Nc2sc3c(c2C(=O)c2cnn(-c4ccc(Cl)c(C(F)(F)F)c4)c2)CCC(C)(C)C3)c1.Cl", "µg/mL", 242),
]

Could you now consider this next molecule?
I'd like to know its solubility. The molecule in question is CCC(CC)N(CCN(C)C(=O)CCC(=O)NCCOCCOCCOCCO)Cc1cccc(C(=O)Nc2sc3c(c2C(=O)c2cnn(-c4ccc(Cl)c(C(F)(F)F)c4)c2)CCC(C)(C)C3)c1.Cl 107

* * *

# assay comment: Cmax in fasted Sprague-Dawley rat at 10 mg/kg, po
# Assay type: ADME, organism-based
# Set-up: dose 10 mg/kg, route po
# study conditions: in vivo
parameter: Cmax (ng/mL)
Give a bare numeral; the unit ng/mL is implied.

# smiles string, units symbol, reported measurement
rows = [
    ("CCC(CC)N(CCN(C)C(=O)CCC(=O)O)Cc1cccc(C(=O)Nc2sc3c(c2C(=O)c2cnn(-c4ccc(Cl)c(C(F)(F)F)c4)c2)CCC(C)(C)C3)c1", "ng/mL", 625),
    ("CCC(CC)N(CCN(C)C(=O)CCC(=O)NCCOCCOCCOCCO)Cc1cccc(C(=O)Nc2sc3c(c2C(=O)c2cnn(-c4ccc(Cl)c(C(F)(F)F)c4)c2)CCC(C)(C)C3)c1", "ng/mL", 28.1),
]

Could you now consider this next compound?
I'd like to know its Cmax. The compound in question is CCC(CC)N(CCN(C)C(=O)CCC(=O)NC(C)(C)C(=O)NCCN(C)C)Cc1cccc(C(=O)Nc2sc3c(c2C(=O)c2cnn(-c4ccc(Cl)c(C(F)(F)F)c4)c2)CCC(C)(C)C3)c1 15.3
